molecular target: recombinant cohesin (CipA of Clostridium josui, BAA32429) (Clostridium josui); assay: batch elution of N-terminal fusion from cohesin carrier with 5 mM EGTA at 4 C, SDS-PAGE densitometry, 360 min set to 100
Ends that are not written are not given here.
experimentalEndpoint: rate of eluted recombinant protein (%) at 30 min
Numeric answer only, unit % assumed.

# binder, resultValue
records = [
    ("recombinant JNK3 of which an I49V-substituted dockerin polypeptide is fused at the N-terminal (protein, not shown: large carriers; small tags and cut ends) MGLKGDVNNDGAIDALDIAALKKAILTQSTSNINLTNADMNNDGNIDAVDFAQLKVKLLN", 53.3),
    ("recombinant JNK3 of which an I49T-substituted dockerin polypeptide is fused at the N-terminal (protein, not shown: large carriers; small tags and cut ends) MGLKGDVNNDGAIDALDIAALKKAILTQSTSNINLTNADMNNDGNIDATDFAQLKVKLLN", 100),
    ("recombinant JNK3 of which an L16T/I49T-substituted dockerin polypeptide is fused at the N-terminal (protein, not shown: large carriers; small tags and cut ends) MGLKGDVNNDGAIDATDIAALKKAILTQSTSNINLTNADMNNDGNIDATDFAQLKVKLLN", 100),
    ("recombinant JNK3 of which an I49N-substituted dockerin polypeptide was fused at the N-terminal (protein, not shown: large carriers; small tags and cut ends) MGLKGDVNNDGAIDALDIAALKKAILTQSTSNINLTNADMNNDGNIDANDFAQLKVKLLN", 94.1),
    ("recombinant JNK3 of which an I49S-substituted dockerin polypeptide is fused at the N-terminal (protein, not shown: large carriers; small tags and cut ends) MGLKGDVNNDGAIDALDIAALKKAILTQSTSNINLTNADMNNDGNIDASDFAQLKVKLLN", 100),
]

Q: May I ask what rate of eluted recombinant protein (%) at 30 min has been recorded for recombinant JNK3 of which a wild-type dockerin was fused at the N-terminal (protein, not shown: large carriers; small tags and cut ends, not fully specified (C-terminus)) MGLKGDVNNDGAIDALDIAALKKAILTQSTSNINLTNADMNNDGNIDAIDFAQLKVKLLN ?
A: 28.8

Q: May I ask what rate of eluted recombinant protein (%) at 30 min has been recorded for recombinant JNK3 of which an I49G-substituted dockerin polypeptide is fused at the N-terminal (protein, not shown: large carriers; small tags and cut ends) MGLKGDVNNDGAIDALDIAALKKAILTQSTSNINLTNADMNNDGNIDAGDFAQLKVKLLN ?
A: 100

The reported numbers originate from patent US20100204445A1.
